# Read-out: Fatty acid synthase (Homo sapiens)
# assay-procedure: LTEA_HepaRG_FASN: Life Technologies and Expression Analysis (LTEA) Assay for Fatty Acid Synthase (FASN) using HepaRG (AID 2283448)
# settings: mRNA level, 48 h; actives raise or lower the signal
Active and inactive are the calls of the source. How the source made its calls: active means hit-call score of the fitted dose curve at least 0.9, where 1 is the maximum; inactive means score below 0.9.
Outcome codes: class 1 for active, class 0 for inactive

smiles-text	group
O=C(O)C1(c2ccc3c(c2)OC[C@H](Cc2ccc(-c4ccccc4)cc2)[C@H]3O)CCCC1	class 1
Oc1cc(Cl)c(Cl)cc1Cl	class 0
Oc1c(Cl)cc(Cl)cc1Cl	class 0
Clc1cccc(Cl)c1Cl	class 0
COc1ccccc1N	class 0
Clc1cccc(Cl)c1	class 0
CC(C)(C)c1ccccc1O	class 0

----------
# assay-procedure: ATG_ISRE_CIS: Attagene CIS-FACTORIAL HepG2 Assay for human Interferon Regulatory Factor 1 (IRF1) binding to an Interferon-Stimulated Response Element (ISRE) (AID 2282948)
# settings: HepG2 ISRE cis-reporter (Attagene), mRNA transcription readout; actives raise or lower the signal
The source made the active and inactive calls. The calls were made as follows: active = hit-call score of the fitted dose curve at least 0.9, where 1 is the maximum; inactive = score below 0.9.
Outcome codes: active, inactive

compound	group
CCOC(=O)OC1=C(c2cc(C)ccc2C)C(=O)NC12CCC(OC)CC2 (stereo not given)	inactive
O=C(CCl)NCO	inactive
c1ccc2sc(SNC3CCCCC3)nc2c1	inactive
CCOP(=S)(OCC)O/N=C(\C#N)c1ccccc1	inactive
O=C(O)c1cc(I)cc(I)c1I	inactive
CC(C)(C)c1ccc(CCOc2ncnc3ccccc23)cc1	inactive
BrCCCCBr	inactive
Nc1nc(=S)[nH][nH]1	inactive
Oc1cc(Cl)c(Cl)cc1Cl	inactive
c1csc(-c2ccc(-c3cccs3)s2)c1	active
Brc1c(Br)c(Br)c(Oc2c(Br)c(Br)c(Br)c(Br)c2Br)c(Br)c1Br	inactive
O=S(=O)(C(Cl)(Cl)Cl)C(Cl)(Cl)Cl	active
Cc1cc(Cl)ccc1OC(C)C(=O)O (stereo not given)	inactive
N#Cc1ccncc1	inactive
CCCCN(CCCCO)N=O	inactive

----------
# experimental-target: Transcription factor Sp1 (Homo sapiens)
# assay-procedure: ATG_Sp1_CIS: Attagene CIS-FACTORIAL HepG2 Assay for human Specificity Protein 1 (Sp1) (AID 2282961)
# settings: HepG2 Sp1 cis-reporter transcription, actives raise or lower the signal
Active and inactive are the calls of the source. The calls were made as follows: active = hit-call score of the fitted dose curve at least 0.9, where 1 is the maximum; inactive = score below 0.9.
Outcome codes: active, inactive

molecule	group
CCCCCCCCCCCCCl	inactive
C=CCOC(N)=O	inactive
CC(C)CP(=S)(S)CC(C)C	inactive
CCCCS(=O)(=O)Cl	inactive
CCCCCCCCBr	inactive
O=S(=O)(C(Cl)(Cl)Cl)C(Cl)(Cl)Cl	active
O=c1[nH]c2ccccc2n1C1CCN(CCCC(c2ccc(F)cc2)c2ccc(F)cc2)CC1	inactive
O=C(Cc1ccccc1)OCCc1ccccc1	inactive
CCCCOP(=O)(CCCC)OCCCC	inactive
CC(C)(c1ccccc1)c1cc(-n2nc3ccccc3n2)c(O)c(C(C)(C)c2ccccc2)c1	inactive
CC(O)(CS(=O)(=O)c1ccc(F)cc1)C(=O)Nc1ccc(C#N)c(C(F)(F)F)c1 (stereo unspecified)	inactive
O=C(NC(=O)c1c(F)cccc1F)Nc1cc(Cl)c(F)c(Cl)c1F	inactive
CC(C)(COCC1CO1)COCC1CO1 (stereo unspecified)	inactive
CC(C)[C@@H](Nc1ccc(C(F)(F)F)cc1Cl)C(=O)OC(C#N)c1cccc(Oc2ccccc2)c1 (stereo partly specified)	inactive
CC(c1ccccc1)(c1ccc(O)cc1)c1ccc(O)cc1	inactive
CC(C)(c1ccc(O)c(-c2ccccc2)c1)c1ccc(O)c(-c2ccccc2)c1	inactive
Cl[C@H]1OCCO[C@@H]1Cl	inactive
CCN(CCO)CCO	inactive
N#CCCC(Br)(C#N)CBr (stereo unspecified)	active
O=C=Nc1ccc(Cl)cc1	inactive
CCOC(=O)CCN(SN(C)C(=O)Oc1cccc2c1OC(C)(C)C2)C(C)C	inactive
CC(C)C(C)(N)C#N (stereo unspecified)	inactive
CC(C)(C)c1ccc(CCOc2ncnc3ccccc23)cc1	inactive
O=C(Nc1ccc(Br)cc1)c1cc(Br)cc(Br)c1O	inactive
CCOC(=O)OC1=C(c2cc(C)ccc2C)C(=O)NC12CCC(OC)CC2 (stereo unspecified)	inactive
ClCc1ccccc1Cl	active
C1CN2CCN1CC2	inactive
O=C(O)C1(c2ccc3c(c2)OC[C@H](Cc2ccc(-c4ccccc4)cc2)[C@H]3O)CCCC1	inactive
c1ccc2sc(SNC3CCCCC3)nc2c1	active
CN(N=O)C(N)=O	inactive
CNC(=O)CSP(=O)(OC)OC	inactive
CCCCCCCCCCCCCCC(Br)C(=O)O (stereo unspecified)	inactive
O=[N+]([O-])c1ccccc1O	inactive
O=[N+]([O-])c1cc([As](=O)(O)O)ccc1O	inactive
CC(c1ccc(O)cc1)c1ccc(O)cc1	inactive
C#C[C@]1(O)CC[C@H]2[C@@H]3CCC4=CC(=O)CC[C@]4(C)[C@H]3CC[C@@]21C	inactive
CCOP(=O)(OCC)OC(=CCl)c1ccc(Cl)cc1Cl	inactive
O=NN1CCCCCCC1	inactive
C=CC(Cl)CCl (stereo unspecified)	inactive
CCCSP(=S)(OCC)Oc1ccc(Cl)cc1Cl (stereo unspecified)	inactive
OCC(c1ccc(Cl)cc1)c1ccc(Cl)cc1	active
OC[P+](CO)(CO)CO	inactive
Cc1cccc(OP(=O)(Oc2cccc(C)c2)Oc2cccc(C)c2)c1	inactive
CN(C1CCCCC1)C1CCCCC1	inactive
C[C@]12CC[C@@H](O)C[C@@H]1CC[C@@H]1[C@@H]2CC[C@]2(C)C(=O)CC[C@@H]12	inactive
O=C/C(Cl)=C(/Cl)C(=O)O	inactive
O=C(N[C@H]1CN2CCC1CC2)c1ccc2c(c1)OCCO2	inactive
C=CCCl	inactive
COP(=S)(OC)Oc1cc(Cl)c(I)cc1Cl	active
BrCC(Br)c1ccccc1 (stereo unspecified)	inactive
CCOC(=O)c1ccccc1S(=O)(=O)NC(=O)Nc1nc(Cl)cc(OC)n1	inactive
CCC[N+](CCC)(CCC)CCC	inactive
ClCCCCl	inactive
Oc1cc(Cl)c(Cl)cc1Cl	active
CC(C)[N+](=O)[O-]	inactive
O=C(NC(=O)c1c(F)cccc1F)Nc1cc(Cl)c(Oc2ncc(C(F)(F)F)cc2Cl)c(Cl)c1	inactive
